# Test system: ATP;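 note: ATP exposure 15 min at 22 °C before imaging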
# assayInfo: switch fluorescence ratio, 500 uM ATP over buffer (Cy3 cluster intensity, sum of 5 cycles each) (fold (ratio)); higher = stronger signal-on switching upon ATP binding; sequences stand for … in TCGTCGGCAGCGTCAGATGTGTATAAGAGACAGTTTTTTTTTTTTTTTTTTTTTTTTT…TC
# studyConditions: aptamer strand: ATP DNA aptamer (quencher-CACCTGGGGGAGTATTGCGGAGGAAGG + anchor), 100 nM annealed; ATP concentration: 500 uM
readoutLabel: switch fluorescence ratio
Answer with the value's number alone.

Which value of switch fluorescence ratio has been reported for TTCAGGTTCT in the records?
1

Entry CAAATAGGCC has what switch fluorescence ratio?
1

# input sequence: TTTATGACAT ; wanted: its switch fluorescence ratio
0.971

What does the record list as switch fluorescence ratio for AGAACCATCG ?
1.05

Look up switch fluorescence ratio: AGGGAGCGGT
1.03

Which measured switch fluorescence ratio value corresponds to TTTCACGCAA ?
3.98

// returns reported switch fluorescence ratio for input GCAAAACGTA
1.01

What value of switch fluorescence ratio has been reported for the following sequence? TCTCTGTCGG
1.05

Recorded switch fluorescence ratio for GCAAGCGGGA , please?
1.07

For the sequence AAGGGTTTAC , what switch fluorescence ratio is on record?
0.995

Return reported switch fluorescence ratio; argument: TATCCTTTGA
1

If you can, please state the reported switch fluorescence ratio value of ATATTAGGGA .
1

Which switch fluorescence ratio is listed for GGGTCGGGGG ?
0.994

Value lookup for switch fluorescence ratio; key = GCAAGTTGAT
0.966

I would be grateful if you could share the reported switch fluorescence ratio for AATAGCAGGA .
1.02

For the sequence GGTATTCCGT , what switch fluorescence ratio is on record?
1.03

Request the reported switch fluorescence ratio associated with TTTTTGACCT
1.38

Name the recorded switch fluorescence ratio for CGATGAAAGG .
0.966

# lookup: switch fluorescence ratio of TATTCGTATT
0.981

GET /values?readout=switch fluorescence ratio&item= TTGACTGGAG
1

For the sequence shown here, TGCAGGGTTT , give the reported switch fluorescence ratio.
0.991

Which value of switch fluorescence ratio has been reported for TGGGATTGGC in the records?
1.01

For GGGCTGCGGA , what is its reported switch fluorescence ratio?
0.976

For the sequence GGGCGGGCGC , what switch fluorescence ratio is on record?
1.06

Which measured switch fluorescence ratio value corresponds to TAAGTCGGTC ?
0.983

Need switch fluorescence ratio, item ATCCGCTTTA
3.28

Looking for the measured switch fluorescence ratio of ATAAAAGCTT , can you help?
1.03

Entry TCTTTGGGCT : reported switch fluorescence ratio = ?
1.1

GET /values?readout=switch fluorescence ratio&item= GAACTTGTCT
1.02

Look up switch fluorescence ratio: CCTTAGGTTT
1

// lookup switch fluorescence ratio for ATGAGTCTAA
0.992

Query: switch fluorescence ratio; subject: ATAGGTTTTG
0.986

Give its switch fluorescence ratio value. Item: TAGGCATTGG
0.995

Field request: switch fluorescence ratio | item: TTTGTGTTGG
0.993

What switch fluorescence ratio value was documented for this sequence, ATGGGCGGTA ?
1.04

Entry CTTTGGGGCG : reported switch fluorescence ratio = ?
1.01

Given the entry GATCAGAGGT , report its measured switch fluorescence ratio.
1

Item CAATGTCCCG has what recorded switch fluorescence ratio?
0.999

Please look up its switch fluorescence ratio: TTGGTTTGCG
0.962

Looking for the measured switch fluorescence ratio of GTCGCCGACC , can you help?
0.996

Looking for the measured switch fluorescence ratio of ACAGACTCGC , can you help?
1.01

// query switch fluorescence ratio value for entry GCTGTTAGAG
1.02

Field request: switch fluorescence ratio | item: GGAAAAACGT
0.998

Reported switch fluorescence ratio for TTATGTTCAG : what is it?
1.04

Suppose we examine the sequence ACATTGAGGT ; what switch fluorescence ratio value has been reported?
1.01

State the recorded switch fluorescence ratio for this entry: GTTGAACGCG
1.03

Could you tell me which switch fluorescence ratio is on file for TAAGAGGGGG ?
0.996

Report switch fluorescence ratio for TTGGTAGGGC please.
0.97

Which switch fluorescence ratio is reported for this sequence? TTAAGACGTC
1.01

Would you kindly share the measured switch fluorescence ratio for CACGAGGGGA ?
1.02

Any idea what switch fluorescence ratio was measured for AATAAATCAT ?
0.992

Which switch fluorescence ratio reading was recorded for the sequence GATTTGCCTG ?
0.968

So what's the measured switch fluorescence ratio for this one? CCGGGAGGTA
0.991

// lookup switch fluorescence ratio for TAAAACCCTT
1.04

For the sequence shown here, TGATGAGTCT , give the reported switch fluorescence ratio.
1.03

Query: switch fluorescence ratio; subject: TCGGGATCGG
1

So what does the record say about switch fluorescence ratio for TCTGGTTAGT ?
1.01

Any idea what switch fluorescence ratio was measured for ACGTTTTGTG ?
0.96

Reported switch fluorescence ratio for TCAGCCCCAT : what is it?
1.03

Which switch fluorescence ratio is listed for GACCACAT ?
1.05

Record request: switch fluorescence ratio value, item CGTGGATGTT
0.983

For AGGAGGCATT , what is its reported switch fluorescence ratio?
1.02

So what's the measured switch fluorescence ratio for this one? ATTCTTTACG
1.03

Looking for the measured switch fluorescence ratio of TAGGCGTGGT , can you help?
1.01

Suppose we examine the sequence CGGTTATATG ; what switch fluorescence ratio value has been reported?
1.02

For the sequence TAAGGGGATT , what switch fluorescence ratio is on record?
1.03

Fill in: switch fluorescence ratio of GTCCATTGGG is ___
1

What value of switch fluorescence ratio has been recorded for this entry: TTTGTTTCCA
0.962

Param item = TCAAGAATGG ; retrieve measured switch fluorescence ratio.
1

Which switch fluorescence ratio reading was recorded for the sequence AGAGAGGGTT ?
0.986

Using the record for AAGTACGCTG , report its switch fluorescence ratio.
1

Tell me the measured switch fluorescence ratio of TATGGCTTTG , please.
0.995

What does the record list as switch fluorescence ratio for TTCGGAGGGC ?
0.996

Find the recorded switch fluorescence ratio belonging to GTGATTTTGG and report it.
0.988

Any idea what its switch fluorescence ratio is? The sequence is AGTAAGGCTA
1

I'd like to know its switch fluorescence ratio. The sequence in question is ATAATTCGGG
1

// lookup switch fluorescence ratio for CTTGACATA
1.03

Requested field: switch fluorescence ratio. Item: TAGGCTGCTG
0.988

May I ask what switch fluorescence ratio has been recorded for ATGCATTTGT ?
1.01

I'd like to know its switch fluorescence ratio. The sequence in question is CTATTAGGGC
1.04

What value of switch fluorescence ratio has been reported for the following sequence? TATGGTCAG
1.02

Query: switch fluorescence ratio; subject: TCTTTGGAAC
0.997

switch fluorescence ratio lookup needed for GCTGCTTTTT , thanks.
1.01

Any idea what switch fluorescence ratio was measured for TGGTCGCATT ?
1.01

Query: switch fluorescence ratio; subject: TTTGTTTTA
1.01

Consider the sequence CGGAAATTGG and give its measured switch fluorescence ratio.
0.982
